Data provenance is ChEMBL document CHEMBL3433997.

target: Glucose transporter (Leishmania mexicana); experiment: ST_JUDE_LEISH: Cytotoxicity at 2uM final concentration against transgenic Leishmania Mexicana promastigotes LmGT2 that are glucose transport deficient and complemented with the L. Mexicana glucose transporter 2. Activity is measured by DNA content using SYBR green in vitro; format: functional
Assign class by inhibition: not lower than 2% means TRUE; lower than 2% means FALSE.

In [3]: df
Out[3]:
                                   compound  qualitative_label
0  CC(=O)Nc1ccc(C(=O)NC2CCN(c3ccnc4cc(Cl)ccc34)C2)cc1 (stereo not given)              FALSE
1  CCc1cn2c3c(cc(C(=O)N[C@@H](Cc4ccccc4)[C@H](O)CNCCOC)cc13)N(C)S(=O)(=O)CC2               TRUE
2  CC(Sc1nc(-c2ccccc2)c(-c2ccccc2)o1)C(=O)NC1CC1 (stereo not given)              FALSE
3  Cc1cc(C2CCN(CCCCNC(=O)c3ccc(-c4ccc(C(F)(F)F)cc4)cc3)CC2)c(C)cc1OCC(N)=O              FALSE

Lab note: next compound to report on.
(Q) hey, is inhibition for this one >= 2%? CN(C)CCOC(=O)C1(O)CCC2CC1C2(C)C (stereo not given)
(A) TRUE
